Adenosine receptor A3 (Homo sapiens): recorded AC50 for assorted molecules; note: assay procedure not described here
Sequence (P0DMS8 whole entry): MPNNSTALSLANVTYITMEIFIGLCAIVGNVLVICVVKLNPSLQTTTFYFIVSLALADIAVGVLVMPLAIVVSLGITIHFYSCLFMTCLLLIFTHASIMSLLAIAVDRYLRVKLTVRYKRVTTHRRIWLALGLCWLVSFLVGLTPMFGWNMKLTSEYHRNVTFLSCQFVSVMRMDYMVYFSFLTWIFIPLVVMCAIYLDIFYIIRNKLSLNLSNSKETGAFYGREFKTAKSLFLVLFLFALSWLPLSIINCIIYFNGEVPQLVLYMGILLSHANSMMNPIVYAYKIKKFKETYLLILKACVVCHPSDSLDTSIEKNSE

Previously resolved entries follow.
1. C=CC[C@]1(O)CC[C@H]2[C@@H]3CCC4=CCCC[C@@H]4[C@H]3CC[C@@]21C | 3.91 µM
2. CC(=O)O[C@H]1C[C@H](O[C@H]2[C@@H](O)C[C@H](O[C@H]3[C@@H](O)C[C@H](O[C@H]4CC[C@@]5(C)[C@H](CC[C@@H]6[C@@H]5C[C@@H](O)[C@]5(C)[C@@H](C7=CC(=O)OC7)CC[C@]65O)C4)O[C@@H]3C)O[C@@H]2C)O[C@H](C)[C@H]1O[C@@H]1O[C@H](CO)[C@@H](O)[C@H](O)[C@H]1O [LANATOSIDE C] | > 30 µM
3. CN1CCC[C@@H]1Cc1c[nH]c2ccc(CCS(=O)(=O)c3ccccc3)cc12 | > 30 µM
4. Cc1ccc([C@@H]2O[C@H](CO)[C@@H](O)[C@H](O)[C@H]2O)cc1Cc1ccc(-c2ccc(F)cc2)s1 [CANAGLIFLOZIN ANHYDROUS] | 18.4 µM
5. CCC[C@@H]1C[C@@H](C(=O)N[C@@H]([C@H]2O[C@H](SC)[C@H](OP(=O)(O)O)[C@@H](O)[C@H]2O)[C@H](C)Cl)N(C)C1 [CLINDAMYCIN PHOSPHATE] | > 30 µM
6. CNC(=O)C[C@@H](N)C(=O)N[C@@H](C(=O)N[C@@H]1C(=O)N2[C@@H]1SC(C)(C)[C@@H]2C(=O)O)c1ccc(O)cc1 | > 30 µM
7. CCCCOc1ccc(CC(=O)NO)cc1 | > 30 µM
8. Nc1ccncc1 | > 30 µM
9. COC(=O)C1=C(C)NC(C)=C(C(=O)O[C@H]2CCN(Cc3ccccc3)C2)[C@H]1c1cccc([N+](=O)[O-])c1 | 4.65 µM
10. CC[N+](C)(CC)CCOC(=O)C1c2ccccc2Oc2ccccc21 | > 30 µM

Q: Look up AC50 of C[C@@H]1C[C@H]2[C@@H]3C[C@H](F)C4=CC(=O)C=C[C@]4(C)[C@@]3(Cl)[C@@H](O)C[C@]2(C)[C@H]1C(=O)COC(=O)C(C)(C)C [CLOCORTOLONE PIVALATE] and report it.
Result: 5.52 µM

Q: Look up AC50 of CC1(C)S[C@@H]2[C@H](NC(=O)[C@H](NC(=O)N3CCN(S(C)(=O)=O)C3=O)c3ccccc3)C(=O)N2[C@H]1C(=O)O and report it.
Result: > 30 µM

Q: Look up AC50 of C[C@@H](O)[C@H]1C(=O)N2C(C(=O)O)=C([C@H]3CCCO3)S[C@H]12 and report it.
Result: > 30 µM

Q: Look up AC50 of C#C[C@]1(O)CC[C@H]2[C@@H]3CCC4=C(CCC(=O)C4)[C@H]3CC[C@@]21C and report it.
Result: 10.1 µM

Q: Look up AC50 of CN(C)CCC(c1ccccc1)c1ccccn1 (stereo not given) and report it.
Result: > 30 µM

---

SYSTEM_NAME: Sodium-dependent noradrenaline transporter (Homo sapiens); note: assay procedure not described here
Sequence (P23975 whole entry): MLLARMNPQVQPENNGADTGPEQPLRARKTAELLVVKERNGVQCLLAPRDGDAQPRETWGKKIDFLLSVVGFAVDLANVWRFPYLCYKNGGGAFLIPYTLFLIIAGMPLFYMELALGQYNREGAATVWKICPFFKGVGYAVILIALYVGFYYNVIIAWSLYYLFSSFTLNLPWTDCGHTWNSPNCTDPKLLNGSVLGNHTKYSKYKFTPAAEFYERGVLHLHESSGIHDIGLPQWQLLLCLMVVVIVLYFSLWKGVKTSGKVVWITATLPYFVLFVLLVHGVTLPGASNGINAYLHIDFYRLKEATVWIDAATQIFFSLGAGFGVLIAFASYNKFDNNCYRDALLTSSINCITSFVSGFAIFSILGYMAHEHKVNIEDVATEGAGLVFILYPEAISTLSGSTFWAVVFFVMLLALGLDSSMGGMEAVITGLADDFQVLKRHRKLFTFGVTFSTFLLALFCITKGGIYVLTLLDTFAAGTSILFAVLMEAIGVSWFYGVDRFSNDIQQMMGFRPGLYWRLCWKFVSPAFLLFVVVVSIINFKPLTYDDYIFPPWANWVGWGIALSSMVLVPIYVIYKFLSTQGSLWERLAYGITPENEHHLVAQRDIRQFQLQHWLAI
# AC50 annotations

Previously resolved entries follow.
1. NS(=O)(=O)c1cc(C(=O)O)cc(N2CCCC2)c1Oc1ccccc1 [PIRETANIDE] | > 30 µM
2. Nc1ccn([C@@H]2O[C@H](CO)[C@@H](O)C2(F)F)c(=O)n1 [GEMCITABINE] | > 30 µM

Q: Look up AC50 of CCOc1cc(CC(=O)N[C@@H](CC(C)C)c2ccccc2N2CCCCC2)ccc1C(=O)O [REPAGLINIDE] and report it.
Result: > 30 µM

Q: Look up AC50 of Cc1ccc(=O)n(-c2ccccc2)c1 [PIRFENIDONE] and report it.
Result: > 30 µM

Q: Look up AC50 of O=C(O)c1ccccc1OP(=O)(O)O [FOSFOSAL] and report it.
Result: > 30 µM

Q: Look up AC50 of NC(=O)CCC/N=C(\c1ccc(Cl)cc1)c1cc(F)ccc1O [PROGABIDE] and report it.
Result: > 10 µM

Q: Look up AC50 of Nc1ccc(C(=O)O)c(O)c1 [AMINOSALICYLIC ACID] and report it.
Result: > 30 µM

Q: Look up AC50 of CC1(C)C(C=C(Cl)Cl)C1C(=O)OCc1cccc(Oc2ccccc2)c1 (configuration not stated) [PERMETHRIN] and report it.
Result: > 10 µM

Q: Look up AC50 of C=C(C)[C@@H]1CCC(C)=C[C@H]1c1c(O)cc(CCCCC)cc1O [CANNABIDIOL] and report it.
Result: 17.3 µM

Q: Look up AC50 of C[C@]12CC[C@H](O)CC1=CC[C@@H]1[C@@H]2CC[C@]2(C)C(c3cccnc3)=CC[C@@H]12 [ABIRATERONE] and report it.
Result: > 30 µM

Q: Look up AC50 of NS(=O)(=O)c1cc2c(cc1C(F)(F)F)NC(Cc1ccccc1)NS2(=O)=O (configuration not stated) [BENDROFLUMETHIAZIDE] and report it.
Result: > 30 µM

Q: Look up AC50 of CCSc1ccc2c(c1)N(CCCN1CCN(C)CC1)c1ccccc1S2 [THIETHYLPERAZINE] and report it.
Result: 9.6 µM

Q: Look up AC50 of O=C(Nc1nc(-c2cc(Cl)cs2)c(N2CCN(C3CCCCC3)CC2)s1)c1cnc(N2CCC(C(=O)O)CC2)c(Cl)c1 [AVATROMBOPAG] and report it.
Result: > 10 µM

Q: Look up AC50 of CN(C)c1cc(NC(=O)CNC(C)(C)C)c(O)c2c1C[C@H]1C[C@H]3[C@H](N(C)C)C(O)=C(C(N)=O)C(=O)[C@@]3(O)C(O)=C1C2=O [TIGECYCLINE] and report it.
Result: > 30 µM

---

Kappa-type opioid receptor (Homo sapiens): recorded AC50 for assorted compounds; note: assay procedure not described here
Sequence (P41145 whole entry): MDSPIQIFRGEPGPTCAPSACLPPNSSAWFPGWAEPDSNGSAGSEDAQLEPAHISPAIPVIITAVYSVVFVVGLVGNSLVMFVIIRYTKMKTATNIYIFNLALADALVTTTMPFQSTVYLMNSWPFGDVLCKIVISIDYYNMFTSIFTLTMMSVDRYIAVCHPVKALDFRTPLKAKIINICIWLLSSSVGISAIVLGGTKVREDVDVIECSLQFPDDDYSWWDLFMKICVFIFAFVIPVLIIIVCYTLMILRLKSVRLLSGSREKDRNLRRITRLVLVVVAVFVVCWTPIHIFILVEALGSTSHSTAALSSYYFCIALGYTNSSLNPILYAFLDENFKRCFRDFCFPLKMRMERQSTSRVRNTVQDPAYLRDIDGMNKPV

Previously resolved entries follow.
1. C=C[C@@]1(C)CC(=O)[C@]2(O)[C@@]3(C)[C@@H](O)CCC(C)(C)[C@@H]3[C@H](OC(=O)CCN(C)C)[C@H](OC(C)=O)[C@@]2(C)O1 | > 30 µM
2. NC(=O)CCC/N=C(\c1ccc(Cl)cc1)c1cc(F)ccc1O [PROGABIDE] | > 10 µM
3. C[n+]1ccccc1/C=N/O [PRALIDOXIME] | > 30 µM

Q: Look up AC50 of C[C@H]1C[C@H]2[C@@H]3CCC4=CC(=O)C=C[C@]4(C)[C@@]3(Cl)[C@@H](O)C[C@]2(C)[C@@]1(O)C(=O)CO [BECLOMETHASONE] and report it.
Result: > 10 µM

Q: Look up AC50 of O=C(Nc1c(Cl)cncc1Cl)c1ccc(OC(F)F)c(OCC2CC2)c1 [ROFLUMILAST] and report it.
Result: > 30 µM

Q: Look up AC50 of O=C(O)c1cc(O)c2c3nc4ccccc4oc-3cc(=O)c2n1 [PIRENOXINE] and report it.
Result: > 30 µM

Q: Look up AC50 of CC(=O)/N=c1/sc(S(N)(=O)=O)nn1C [METHAZOLAMIDE] and report it.
Result: > 10 µM

---

SYSTEM_NAME: Gamma-aminobutyric acid receptor subunit alpha-1/alpha-2/beta-2/gamma-2 (Homo sapiens, UniProt P14867+P18507+P47869+P47870); note: assay procedure not described here
Sequence (P14867 whole entry): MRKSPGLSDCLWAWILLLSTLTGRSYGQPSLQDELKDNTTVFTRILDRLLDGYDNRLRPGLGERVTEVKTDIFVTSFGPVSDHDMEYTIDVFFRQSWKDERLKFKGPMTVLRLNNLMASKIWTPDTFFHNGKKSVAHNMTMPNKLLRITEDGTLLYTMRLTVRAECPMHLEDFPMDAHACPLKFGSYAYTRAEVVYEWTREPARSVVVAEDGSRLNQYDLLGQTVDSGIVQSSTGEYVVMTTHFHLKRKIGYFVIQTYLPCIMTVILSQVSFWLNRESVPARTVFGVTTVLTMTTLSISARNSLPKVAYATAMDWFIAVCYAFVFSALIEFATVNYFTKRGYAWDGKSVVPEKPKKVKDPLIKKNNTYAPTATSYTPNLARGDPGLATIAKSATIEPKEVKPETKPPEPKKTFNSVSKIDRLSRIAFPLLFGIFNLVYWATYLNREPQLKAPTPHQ
Sequence (P47870 whole entry): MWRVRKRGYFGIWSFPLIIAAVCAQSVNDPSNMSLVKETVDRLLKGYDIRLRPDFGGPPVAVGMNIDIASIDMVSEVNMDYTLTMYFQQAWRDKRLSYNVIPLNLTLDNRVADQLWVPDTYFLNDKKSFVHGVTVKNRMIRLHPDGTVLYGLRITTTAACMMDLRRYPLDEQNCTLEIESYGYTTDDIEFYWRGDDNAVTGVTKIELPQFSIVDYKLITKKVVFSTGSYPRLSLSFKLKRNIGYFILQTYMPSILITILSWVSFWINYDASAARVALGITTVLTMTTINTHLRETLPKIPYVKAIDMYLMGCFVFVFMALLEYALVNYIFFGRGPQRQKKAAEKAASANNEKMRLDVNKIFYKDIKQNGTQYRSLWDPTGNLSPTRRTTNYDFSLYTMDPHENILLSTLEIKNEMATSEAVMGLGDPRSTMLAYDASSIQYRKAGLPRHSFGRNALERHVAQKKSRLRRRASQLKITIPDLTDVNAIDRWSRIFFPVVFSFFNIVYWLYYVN
Sequence (P18507 whole entry): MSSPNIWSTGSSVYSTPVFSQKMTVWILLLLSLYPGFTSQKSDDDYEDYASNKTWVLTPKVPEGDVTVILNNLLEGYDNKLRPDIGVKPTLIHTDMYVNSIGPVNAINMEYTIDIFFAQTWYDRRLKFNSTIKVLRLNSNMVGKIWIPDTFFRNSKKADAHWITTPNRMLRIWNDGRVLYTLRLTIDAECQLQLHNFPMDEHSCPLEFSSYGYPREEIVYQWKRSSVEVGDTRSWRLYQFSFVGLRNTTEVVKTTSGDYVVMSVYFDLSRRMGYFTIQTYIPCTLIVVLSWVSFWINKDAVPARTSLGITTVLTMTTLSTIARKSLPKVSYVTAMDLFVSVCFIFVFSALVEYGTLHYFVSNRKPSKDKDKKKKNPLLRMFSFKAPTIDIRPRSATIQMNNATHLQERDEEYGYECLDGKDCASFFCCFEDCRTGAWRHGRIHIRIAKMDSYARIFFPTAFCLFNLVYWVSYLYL
Sequence (P47869 whole entry): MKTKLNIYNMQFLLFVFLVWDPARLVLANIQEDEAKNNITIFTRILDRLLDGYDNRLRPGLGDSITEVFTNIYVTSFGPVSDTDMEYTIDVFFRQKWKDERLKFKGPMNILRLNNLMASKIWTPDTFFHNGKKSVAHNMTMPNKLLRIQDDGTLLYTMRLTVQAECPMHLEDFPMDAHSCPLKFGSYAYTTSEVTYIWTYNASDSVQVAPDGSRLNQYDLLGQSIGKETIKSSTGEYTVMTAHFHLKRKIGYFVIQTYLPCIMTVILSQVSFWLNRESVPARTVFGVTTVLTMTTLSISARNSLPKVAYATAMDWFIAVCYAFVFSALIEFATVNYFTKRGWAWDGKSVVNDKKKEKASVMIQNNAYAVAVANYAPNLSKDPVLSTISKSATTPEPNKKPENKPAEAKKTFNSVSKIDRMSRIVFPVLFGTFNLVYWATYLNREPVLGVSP
Format: functional, cell-based
REPORTED_PROPERTY: AC50

Previously resolved entries follow.
1. O=C(CCCN1CCC(n2c(O)nc3ccccc32)CC1)c1ccc(F)cc1 | 20 µM
2. CC(=N)N1CC[C@H](SC2=C(C(=O)O)N3C(=O)[C@H]([C@@H](C)O)[C@H]3C2)C1 | > 800 µM
3. CC[C@H]1OC(=O)[C@H](C)[C@@H](O[C@H]2C[C@@](C)(OC)[C@@H](O)[C@H](C)O2)[C@H](C)[C@@H](O[C@@H]2O[C@H](C)C[C@H](N(C)C)[C@H]2O)[C@](C)(O)C[C@@H](C)/C(=N\OCOCCOC)[C@H](C)[C@@H](O)[C@]1(C)O | > 30 µM
4. CCn1cc(C(=O)O)c(=O)c2cc(F)c(N3CCN(C)CC3)cc21 | > 30 µM
5. CCCCC1(CC)C(=O)NC(=O)NC1=O | > 30 µM

Q: Look up AC50 of C#Cc1cccc(Nc2ncnc3cc(OCCOC)c(OCCOC)cc23)c1 and report it.
Result: > 30 µM

Q: Look up AC50 of CO/N=C(\C(=O)N[C@@H]1C(=O)N2C(C(=O)O)=C(COC(N)=O)CS[C@H]12)c1ccco1 and report it.
Result: > 30 µM

---

# AC50 annotations
SYSTEM_NAME: Beta-1 adrenergic receptor (Homo sapiens); note: assay procedure not described here
Sequence (P08588 whole entry): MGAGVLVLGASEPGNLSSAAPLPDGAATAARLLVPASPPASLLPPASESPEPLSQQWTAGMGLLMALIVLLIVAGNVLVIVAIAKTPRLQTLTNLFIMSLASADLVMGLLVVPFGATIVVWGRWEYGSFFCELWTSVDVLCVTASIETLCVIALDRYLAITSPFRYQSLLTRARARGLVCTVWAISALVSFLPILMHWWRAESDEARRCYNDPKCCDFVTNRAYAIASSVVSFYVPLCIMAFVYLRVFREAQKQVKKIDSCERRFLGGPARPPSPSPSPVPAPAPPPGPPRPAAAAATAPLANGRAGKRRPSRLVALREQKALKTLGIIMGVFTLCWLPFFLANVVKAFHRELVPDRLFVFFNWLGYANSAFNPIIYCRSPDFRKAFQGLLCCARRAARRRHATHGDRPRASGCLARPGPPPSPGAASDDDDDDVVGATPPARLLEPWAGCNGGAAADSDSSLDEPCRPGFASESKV
Assay type: functional

Previously resolved entries follow.
1) C[C@]12CC[C@H](O)CC1=CC[C@@H]1[C@@H]2CC[C@]2(C)C(c3cccnc3)=CC[C@@H]12 [ABIRATERONE] | > 30 µM
2) CC(C)=CCOc1ccc(/C=C/C(=O)c2ccc(OCC=C(C)C)cc2OCC(=O)O)cc1 [SOFALCONE] | 21 µM
3) C[C@]1(COc2ccc(N3CCC(Oc4ccc(OC(F)(F)F)cc4)CC3)cc2)Cn2cc([N+](=O)[O-])nc2O1 | > 10 µM
4) O=C(O)CSCC(=O)NC1CCSC1=O (centres undefined) [ERDOSTEINE] | > 30 µM
5) CC(=O)Nc1c(I)c(C(=O)N[C@H]2C(O)O[C@H](CO)[C@@H](O)[C@@H]2O)c(I)c(N(C)C(C)=O)c1I (some centres undefined) [METRIZAMIDE] | > 10 µM
6) COc1ccc(/C=C/C(=O)Nc2ccccc2C(=O)O)cc1OC | > 30 µM
7) NC(=O)CCC/N=C(\c1ccc(Cl)cc1)c1cc(F)ccc1O [PROGABIDE] | > 10 µM
8) Nc1ccc(C(=O)O)c(O)c1 [AMINOSALICYLIC ACID] | > 30 µM

Q: Report the value of AC50 obtained on Beta-1 adrenergic receptor (Homo sapiens) for CCCCCCNC(=O)n1cc(F)c(=O)[nH]c1=O [CARMOFUR] .
Result: > 30 µM
